Test: Solubility in 0.1 M pH 7.0 phosphate buffer (bioassay and UV-assay)
Format: physicochemical
Details: 0.1 m phosphate buffer, pH 7, aqueous buffer, bioassay; read-out: Solubility (BA)
Measured solubility at 4 h of individual entries
Expressed in mg/mL, but write only the number.

CC1=C(C(=O)O)N2C(=O)C(NC(=O)CC3=C(CN)CCCC3)C2SC1 (centres unmarked) [Example 17] | 4.1

# evaluate next
Fill in solubility at 4 h for record CC(=O)OCC1=C(C(=O)O)N2C(=O)C(NC(=O)CC3=C(CN)CCCC3)C2SC1 (centres unmarked) [Example 16] 5.4

---

Assay: Solubility in 0.1 M pH 7.0 phosphate buffer (bioassay and UV-assay)
Format: physicochemical
Conditions: 0.1 m phosphate buffer, pH 7, aqueous buffer, stirred at 25° C. for 4 hours in 0.1 M pH 7.0 phosphate buffer; assayed spectroscopically against its own standard; read-out: Solubility
PROPERTY_MEASURED: solubility at 4 h

Take a look at these entries with their results.
NCC1=C(CC(=O)NC2C(=O)N3C(C(=O)O)=C(CSc4ccc5nnc(O)n5n4)CSC23)CCCC1 (stereo not drawn) | 8000 µg/mL
NCc1ccccc1CC(=O)NC1C(=O)N2C(C(=O)O)=C(CSc3ccc4nnc(O)n4n3)CSC12 (stereo not drawn) [BB-S207, reference compound] | 3600 µg/mL

# evaluate next
Fill in solubility at 4 h for record Cn1nnnc1SCC1=C(C(=O)O)N2C(=O)C(NC(=O)CC3=C(CN)CCCC3)[C@H]2SC1 (stereo partly drawn) 23000 to 26000 µg/mL

---

Test: Solubility in 0.1 M pH 7.0 phosphate buffer (bioassay and UV-assay)
Format: physicochemical
Settings: 0.1 m phosphate buffer, pH 7, aqueous buffer, 0.1 M phosphate buffer (pH 7.0), 4 hr. at 25° C., UV-assay; read-out: Solubility, UV (UV-assay)
Measured solubility at 4 h of individual entries
Expressed in mg/mL, but write only the number.

Take a look at these entries with their results.
NCc1ccccc1CC(=O)NC1C(=O)N2C(C(=O)O)=C(CSc3ccc4nnc(O)n4n3)CSC12 (stereo not drawn) [BB-S207, reference compound] | 3.9
Cc1nnc(SCC2=C(C(=O)O)N3C(=O)C(NC(=O)CC4=C(CN)CCCC4)[C@H]3SC2)s1 (stereo partly drawn) [Example 4] | 4.6

Fill in solubility at 4 h for record NCC1=C(CC(=O)NC2C(=O)N3C(C(=O)O)=C(CSc4ccc(O)nn4)CS[C@H]23)CCCC1 (stereo partly drawn) [Example 1] 16

---

Test: Solubility in 0.1 M pH 7.0 phosphate buffer (bioassay and UV-assay)
Format: physicochemical
Settings: 0.1 m phosphate buffer, pH 7, aqueous buffer, 0.1 M phosphate buffer (pH 7.0), 4 hr. at 25° C., UV-assay; read-out: Solubility, UV (UV-assay)
Measured solubility at 4 h of individual entries
Field note: include the unit after the figure.

Take a look at these entries with their results.
NCC1=C(CC(=O)NC2C(=O)N3C(C(=O)O)=C(CSc4ccc5nnc(O)n5n4)CSC23)CCCC1 (stereo not shown) | 8100 µg/mL
Cn1nnnc1SCC1=C(C(=O)O)N2C(=O)C(NC(=O)CC3=C(CN)CCCC3)[C@H]2SC1 (stereo partly shown) | 24600 µg/mL
NCc1ccccc1CC(=O)NC1C(=O)N2C(C(=O)O)=C(CSc3ccc4nnnn4n3)CSC12 (stereo not shown) [BB-S226, reference compound] | 2500 µg/mL

Fill in solubility at 4 h for record Cn1nnnc1SCC1=C(C(=O)O)N2C(=O)C(NC(=O)Cc3ccccc3CN)C2SC1 (stereo not shown) [MR-S94, reference compound] 1900 µg/mL

Fill in solubility at 4 h for record NCc1ccccc1CC(=O)NC1C(=O)N2C(C(=O)O)=C(CSc3ccc(O)nn3)CSC12 (stereo not shown) [BB-S150, reference compound] 4400 µg/mL

Fill in solubility at 4 h for record NCC1=C(CC(=O)NC2C(=O)N3C(C(=O)O)=C(CSc4ccc5nnnn5n4)CSC23)CCCC1 (stereo not shown) 3000 µg/mL

Fill in solubility at 4 h for record Cc1nnc(SCC2=C(C(=O)O)N3C(=O)C(NC(=O)Cc4ccccc4CN)C3SC2)s1 (stereo not shown) [MR-S96, reference compound] 900 µg/mL

Data credit: patent US3946000A
